- TARGET_UNDER_TEST: T1, human oncogenic ras p21 (human)
- T1 chain: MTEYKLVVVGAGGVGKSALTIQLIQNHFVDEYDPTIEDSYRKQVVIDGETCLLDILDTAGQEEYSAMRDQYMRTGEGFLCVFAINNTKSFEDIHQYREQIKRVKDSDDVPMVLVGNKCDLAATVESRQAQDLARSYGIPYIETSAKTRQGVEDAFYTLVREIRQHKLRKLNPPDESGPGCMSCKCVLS
- EXPERIMENT_NOTES: cell-based or functional assay
Reported Present Inhibition of ras-Induced Maturation is given for each of the following binders.
Note: state the figure and append the unit.

Sample records with Present Inhibition of ras-Induced Maturation:
BINDER	TEST_VALUE
VVI [Val-Val-Ile]	34%
IKRVKD [peptide of SEQ ID NO:1, Ile-Lys-Arg-Val-Lys-Asp]	76%
DLAA [peptide of SEQ ID NO:4, Asp-Leu-Ala-Ala]	22%

Input: Fill in: Present Inhibition of ras-Induced Maturation of GNKCDLAARTVE [peptide of SEQ ID NO:8, Gly-Asn-Lys-Cys-Asp-Leu-Ala-Ala-Arg-Thr-Val-Glu] is ___
Output: 92%
